Measured target: Beta Secretase enzyme (BACE) (Homo sapiens)
Assay details: In vitro enzymatic BACE FRET (fluorescence resonance energy transfer) assay
Assay type: biochemical
Settings: average IC50, enzyme assay; read-out: BACE 1 FRET assay
Experimental: In Vitro Enzymatic Bace Fret (Fluorescence Resonance Energy Transfer) Assay (Enzyme Assay Data in the Example Table I) The assay buffer used in this screen is 0.05 M acetate, pH 4.2, 10% DMSO final, 100 uM genapol (which is a nonionic detergent, below its Critical Micelle Concentration). […] The FRET assay is terminated with by addition of Tris buffer, which raises the pH to neutrality, and the fluorescence is determined. […]
Reported endpoint: IC50 (nM)

# count of solved cases: 5
CCC(C)CSc1cnc2c(c1)[C@]1(COC(N)=N1)c1cc(-c3cccnc3)ccc1O2 (stereo partly drawn)    17.3
NC1=N[C@@]2(CO1)c1cc(-c3ccc(F)nc3)ccc1Oc1c(F)cc(OCC3CCOCC3)cc12    6
Cc1ccc(Oc2ccc3c(c2)[C@@]2(COC(N)=N2)c2cc(N4CCOCC4)cc(F)c2O3)nc1    50.7
Cc1cnc(F)c(-c2ccc3c(c2)[C@@]2(COC(N)=N2)c2cc(N4CCC(F)(F)C4)ncc2O3)c1    0.5
N#Cc1cccc(COc2ccc3c(c2)[C@@]2(COC(N)=N2)c2cc(-c4cccnc4)cnc2O3)c1    30.8

(A) Cc1cnc(F)c(-c2ccc3c(c2)[C@@]2(COC(N)=N2)c2cc(N4CCC(F)(F)CC4)ncc2O3)c1
(B) Cc1cc(-c2cc(F)c3c(c2)[C@]2(COC(N)=N2)c2cc(-c4cccnc4F)ccc2O3)cc(=O)o1
## Task Dear colleague, could you let me know whether A or B has the lower recorded IC50? Thanks. API: response body contains the label of the selected item.
## Result B
(B: 0.6 nM, A: 1.2 nM)

---

Tested on: Aβ40 in conditioned medium of cells stably expressing Amyloid Precursor Protein (APP)
Assay details: In vitro BACE cell-based assay (Aβ40 in conditioned medium, sandwich ELISA)
Settings: Homo sapiens, HEK293, average IC50; read-out: HEK cell assay
pIC50: −log10 of the molar value.
Reported endpoint: pIC50

NC1=N[C@]2(CO1)c1cc(C3=CCOCC3)cc(F)c1Oc1ccc(-c3cccnc3F)c(F)c12 [Example 1047]    7.02
COc1cncc(-c2ccc3c(c2)[C@@]2(COC(N)=N2)c2cc(C4=CCOCC4)ncc2O3)c1 [Example 144]    8.06
NC1=N[C@@]2(CO1)c1cc(-c3cncc(F)c3)ccc1Oc1c(F)cc([C@@H]3CCCOC3)cc12 [Example 284]    7.87

(I) CC(C)(C#N)COc1cc(F)c2c(c1)[C@]1(CSC(N)=N1)c1cc(-c3cccnc3F)ccc1O2 [Example 800]
(II) CC(C)(C#N)COc1cc(F)c2c(c1)[C@]1(COC(N)=N1)c1cc(-c3cncc(F)c3)ccc1O2 [Example 272]
(III) NC1=N[C@@]2(CC1(F)F)c1cc(-c3cccnc3)ccc1Oc1ncc(-c3cccnc3)cc12 [Example 112]
## Task Sort the compounds on pIC50; start with the lowest figure. Give me the labels in the order the question wants.
## Result III, I, II
(III: 5.67, I: 7.70, II: 8.23)

---

Measured target: Beta Secretase enzyme (BACE) (Homo sapiens, UniProt P56817)
Sequence (P56817 46-501, species assumed): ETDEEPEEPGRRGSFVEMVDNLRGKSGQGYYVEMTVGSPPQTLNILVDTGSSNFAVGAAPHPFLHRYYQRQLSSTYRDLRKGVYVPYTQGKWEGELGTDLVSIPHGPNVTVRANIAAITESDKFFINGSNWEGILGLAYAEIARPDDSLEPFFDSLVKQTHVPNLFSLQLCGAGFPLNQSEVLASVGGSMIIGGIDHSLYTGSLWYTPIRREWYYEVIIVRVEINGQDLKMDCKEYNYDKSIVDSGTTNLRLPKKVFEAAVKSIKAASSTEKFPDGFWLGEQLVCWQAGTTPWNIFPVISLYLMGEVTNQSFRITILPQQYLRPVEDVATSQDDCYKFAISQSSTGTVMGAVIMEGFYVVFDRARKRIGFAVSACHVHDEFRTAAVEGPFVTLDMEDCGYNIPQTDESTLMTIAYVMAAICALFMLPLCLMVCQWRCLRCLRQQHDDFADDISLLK
Assay details: In vitro enzymatic BACE FRET (fluorescence resonance energy transfer) assay
Assay type: biochemical
Settings: average IC50, enzyme assay; read-out: BACE 1 FRET assay
pIC50: −log10 of the molar value.
Reported endpoint: pIC50

Study these solved cases before continuing.
Cn1cc(-c2cc(F)c3c(c2)[C@]2(COC(N)=N2)c2cc(-c4c(F)ccnc4F)ccc2O3)cn1    9.30
NC1=N[C@]2(CS1)c1cc(-c3cccnc3F)ccc1Oc1cnc(C3=CCOCC3)cc12    6.64
CC1(C#Cc2cncc(-c3ccc4c(c3)[C@@]3(COC(N)=N3)c3cc(-c5ccnc(F)c5)ncc3O4)c2)COC1    8.26
CC1(/C=C/c2cnc3c(c2)[C@]2(COC(N)=N2)c2cc(-c4cc(Cl)ccc4F)ccc2O3)COC1    9.40
CC1(COc2cc3c(cc2F)Oc2ccc(-c4cncc(C#N)c4)cc2[C@@]32COC(N)=N2)COC1    8.06
CC#Cc1cncc(-c2cnc3c(c2)[C@]2(COC(N)=N2)c2cc(-c4cccnc4F)ccc2O3)c1    6.98
CC1(C)C[C@H](c2cnc3c(c2)[C@]2(COC(N)=N2)c2cc(-c4cncc(Cl)c4)ccc2O3)CCO1    8.66
NC1=N[C@@]2(CO1)c1cc(-c3cccnc3F)ccc1Oc1nc(F)c(N3CCOCC3)cc12    8.44
NC1=N[C@@]2(CS1)c1cc(-c3cccnc3F)ccc1Oc1ncc(C3CCOCC3)cc12    8.17
CC(C)(C#N)COc1cc(F)c2c(c1)[C@]1(COC(N)=N1)c1cc(-c3cccnc3)c(F)cc1O2    9.15

(A) NC1=N[C@@]2(CO1)c1cc(O)ccc1Oc1c(F)cc(-n3cccn3)cc12
(B) COC(C)(C)C#Cc1cnc2c(c1)[C@@]1(COC(N)=N1)c1cc(-c3cncc(F)c3)c(F)cc1O2
## Task Quick one: lower pIC50, A or B ? Answer format: the label of the selected item.
## Result A
(A: 5.96, B: 6.96)

(1) Cc1cc(-c2cc3c(c(F)n2)Oc2ccc(-c4cccnc4F)cc2[C@@]32CSC(N)=N2)ccn1
(2) C[C@H]1CN(c2cc3c(cn2)Oc2ccc(-c4cccnc4N4CCN(C)[C@@H](C)C4)cc2[C@@]32COC(N)=N2)CCN1C
## Task Hi, I'm comparing two records. Which one has the lower pIC50, 1 or 2 ? Write the label of whichever entry you select.
## Result 2
